Values compiled from patent US20150197559A1.

systemName: T1, BoNT/B1 (Clostridium botulinum, UniProt P10844 2-1291)
T1 sequence: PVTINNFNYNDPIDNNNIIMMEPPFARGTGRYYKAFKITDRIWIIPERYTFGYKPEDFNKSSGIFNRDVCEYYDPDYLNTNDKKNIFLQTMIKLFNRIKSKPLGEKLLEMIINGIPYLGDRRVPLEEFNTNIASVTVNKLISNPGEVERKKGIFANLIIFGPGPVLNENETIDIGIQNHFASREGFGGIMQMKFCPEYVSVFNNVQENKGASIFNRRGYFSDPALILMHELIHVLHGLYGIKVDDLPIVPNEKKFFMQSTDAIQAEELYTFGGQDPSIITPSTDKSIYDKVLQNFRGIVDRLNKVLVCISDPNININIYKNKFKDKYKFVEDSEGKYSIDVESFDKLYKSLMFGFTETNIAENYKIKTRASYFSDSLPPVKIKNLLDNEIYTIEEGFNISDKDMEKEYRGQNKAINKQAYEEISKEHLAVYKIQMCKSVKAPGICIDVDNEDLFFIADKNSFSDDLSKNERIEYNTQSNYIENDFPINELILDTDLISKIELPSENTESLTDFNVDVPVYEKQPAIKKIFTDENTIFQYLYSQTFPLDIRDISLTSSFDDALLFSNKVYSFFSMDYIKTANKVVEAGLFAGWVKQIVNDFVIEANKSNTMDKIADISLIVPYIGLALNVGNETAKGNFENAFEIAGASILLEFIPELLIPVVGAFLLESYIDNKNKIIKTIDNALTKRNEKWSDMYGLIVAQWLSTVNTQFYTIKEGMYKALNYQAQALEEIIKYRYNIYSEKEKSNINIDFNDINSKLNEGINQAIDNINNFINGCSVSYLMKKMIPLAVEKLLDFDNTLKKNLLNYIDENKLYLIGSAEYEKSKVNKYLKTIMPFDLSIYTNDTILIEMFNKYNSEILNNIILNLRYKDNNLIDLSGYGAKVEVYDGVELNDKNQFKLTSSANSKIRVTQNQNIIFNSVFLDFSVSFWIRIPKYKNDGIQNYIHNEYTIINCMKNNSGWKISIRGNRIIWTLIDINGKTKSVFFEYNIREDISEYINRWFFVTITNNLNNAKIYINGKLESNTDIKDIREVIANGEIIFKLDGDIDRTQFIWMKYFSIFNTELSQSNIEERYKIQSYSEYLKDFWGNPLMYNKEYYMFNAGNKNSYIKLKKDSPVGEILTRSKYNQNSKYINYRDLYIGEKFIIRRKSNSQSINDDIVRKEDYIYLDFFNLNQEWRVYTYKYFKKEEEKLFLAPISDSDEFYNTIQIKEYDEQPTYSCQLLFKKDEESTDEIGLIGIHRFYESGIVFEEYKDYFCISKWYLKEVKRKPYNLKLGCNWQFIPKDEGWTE
procedureDetails: flow cytometry, yeast-displayed scFv, soluble toxin
measuredParameter: Kd (nM)
Output spec: scalar in nM, unitless text.

Examples with answers:
| binder | Kd (nM) |
| --- | --- |
| 2B24 scFv (scFv) scFv: QVQLVESGGGVVQPGRSLRLSCAASGLTFSVYGMHWVRQAPGKGLEWVAVISHTGSEEYYADSVKGRFSISRDNSNNTLFLQMNSLRPEDTAVYYCVKDGPMAAIPFYYFDFWGQGTLVTVSSGGGGSGGGGSGGGGSQSVVTQPPSVSAAPGQKVTISCSGSSSNIGNNYVSWYQQLPGTAPKLLIYDNNKRPSGIPDRFSGSKSGTSATLGITGLQTGDEADYYCGTWDSSLSAGVFGGGTKLTVL | 0.79 |
| 1B18 scFv (scFv, V domains shown) VH: EVQLVQSGGGLVQPGGSRRLSCAASGFYFNAYWMTWVRQAPGKGLEWVANINLDGTEIYYLDSVKGRFTVSRDNVKNSVFLQMSSLRVEDTAVYFCARLEWGGRNGWVSPWGQGTLVTVSS VL: DVVMTQSPSSVSASVGDRVTITCRASQSISSYLNWYQQRPGKAPKLLIFAASSLQSAVPSRFSGSGSGTDFTLTISSLQPEDFATYYCQQSYSTPPTFGQGTKVEIKR | 7.3 |

Now consider a different binder.
Param item = 2B23 scFv (scFv) scFv: EVQLLESGGGLVQPGGSLRLSCAASGFTFSNYPMSWVRQAPGKGLAWVSSLTASGDNTFYADSVKGRFTISRDNSNNTLYLQMHSLRAEDTAVYYCAKALVGRYDISTGYYRPVMDSWGQGTLVTVSSGGGGSGGGGSGGGGSDIQMTQSPPSLSASVGDRVTITCRTSQGFTSALAWYQQKPGEPPKLLIYDASKLESGVPSRFSGSGSGTNFALTISSLQPEDFATYFCQQSNSYPLTFGGGTKVEIK ; retrieve measured Kd.
0.08
